Target: VHL (VCB, VHL:ElonginC:ElonginB) (Homo sapiens, UniProt P40337)
Construct: His6 (N, cleaved yes); made in house; host or cells: Escherichia coli
Assay: FP competition binding, binary binding to VHL
pKd: −log10 of the molar value.
measurement kind: pKd

INSERT INTO assay_data (smiles_text, measurement_kind, readout_value) VALUES
  ('Cc1ncsc1-c1ccc(CNC(=O)[C@@H]2C[C@@H](O)CN2C(=O)[C@@H](NC(=O)CCOCCOC(=O)Cc2ccccc2)C(C)(C)C)cc1', 'pKd', 6.63);

* * *

Target: VHL (VCB, VHL:ElonginC:ElonginB) (Homo sapiens, UniProt P40337)
Construct: His6 (N, cleaved yes); made in house; host or cells: Escherichia coli
Test: FP competition binding, binary binding to VHL
Conditions: compound alone to VHL, FP competition with FAM-HIF-1α peptide, mean ± SEM; read-out: Kd binary
Kd for assorted compounds
measurement kind: Kd

INSERT INTO results (smiles_text, measurement_kind, readout_value) VALUES
  ('Cc1ncsc1-c1ccc(CNC(=O)[C@@H]2C[C@@H](O)CN2C(=O)[C@@H](NC(=O)CCOCCOCCNC(=O)Cc2ccccc2)C(C)(C)C)cc1', 'Kd', '172 nM'),
  ('Cc1ncsc1-c1ccc(CNC(=O)[C@@H]2C[C@@H](O)CN2C(=O)[C@@H](NC(=O)CCOCCOCCOCCOC(=O)Cc2ccccc2)C(C)(C)C)cc1', 'Kd', '144 nM'),
  ('Cc1ncsc1-c1ccc(CNC(=O)[C@@H]2C[C@@H](O)CN2C(=O)[C@@H](NC(=O)CCCCCNC(=O)Cc2ccccc2)C(C)(C)C)cc1', 'Kd', '119 nM');

* * *

logD hydrocarbon water for assorted compounds
Assay: Log D(dec/w) shake flask partition coefficient
Format: physicochemical
Settings: 1,9-decadiene/PBS; 1,9-decadiene and PBS pH 7.4 shake flask partition coefficient
measurement kind: logD hydrocarbon water

INSERT INTO results (compound, readout_value) VALUES
  ('Cc1ncsc1-c1ccc(CNC(=O)[C@@H]2C[C@@H](O)CN2C(=O)[C@@H](NC(=O)CCCCCNC(=O)CC23CC4CC(CC(C4)C2)C3)C(C)(C)C)cc1 [Compound 5]', -0.2),
  ('Cc1ncsc1-c1ccc(CNC(=O)[C@@H]2C[C@@H](O)CN2C(=O)[C@@H](NC(=O)CCCCCNC(=O)Cc2ccccc2)C(C)(C)C)cc1 [Compound 3]', -1.5),
  ('Cc1ncsc1-c1ccc(CNC(=O)[C@@H]2C[C@@H](O)CN2C(=O)[C@@H](NC(=O)CCOCCNC(=O)Cc2ccccc2)C(C)(C)C)cc1 [Compound 15]', -1.4),
  ('Cc1ncsc1-c1ccc(CNC(=O)[C@@H]2C[C@@H](O)CN2C(=O)[C@@H](NC(=O)CCOCCOCCNC(=O)Cc2ccccc2)C(C)(C)C)cc1 [Compound 16]', -2.3),
  ('CCCC(=O)NCCCCCC(=O)N[C@H](C(=O)N1C[C@H](O)C[C@H]1C(=O)NCc1ccc(-c2scnc2C)cc1)C(C)(C)C [Compound 2]', -2.2),
  ('CCCCOc1ccc(-c2ccc(C(=O)NCCCCCC(=O)N[C@H](C(=O)N3C[C@H](O)C[C@H]3C(=O)NCc3ccc(-c4scnc4C)cc3)C(C)(C)C)cc2)cc1 [Compound 7]', 1);

* * *

System: P-gp (human MDR1)
Test: in vitro
Details: dog, MDCK-MDR1
measurement kind: Papp B→A at 5 µM

INSERT INTO results (compound, readout_value) VALUES
  ('Cc1ncsc1-c1ccc(CNC(=O)[C@@H]2C[C@@H](O)CN2C(=O)[C@@H](NC(=O)COCCOCCOCCNC(=O)C[C@@H]2N=C(c3ccc(Cl)cc3)c3c(sc(C)c3C)-n3c(C)nnc32)C(C)(C)C)cc1 [Compound 21, MZ1]', '1.5 ×10⁻⁶ cm/s'),
  ('Cc1ncsc1-c1ccc(CNC(=O)[C@@H]2C[C@@H](O)CN2C(=O)[C@@H](NC(=O)CCOCCOCCOCCNC(=O)Cc2ccccc2)C(C)(C)C)cc1 [Compound 17]', '2 ×10⁻⁶ cm/s'),
  ('Cc1ncsc1-c1ccc(CNC(=O)[C@@H]2C[C@@H](O)CN2C(=O)[C@@H](NC(=O)CCCCCNC(=O)C2CCCCC2)C(C)(C)C)cc1 [Compound 4]', '10.3 ×10⁻⁶ cm/s'),
  ('C[C@H]1O[C@@H](O[C@H]2[C@@H](O)C[C@H](O[C@H]3[C@@H](O)C[C@H](O[C@H]4CC[C@@]5(C)[C@H](CC[C@@H]6[C@@H]5C[C@@H](O)[C@]5(C)[C@@H](C7=CC(=O)OC7)CC[C@]65O)C4)O[C@@H]3C)O[C@@H]2C)C[C@H](O)[C@@H]1O [Digoxin, reference compound]', '21.5 ×10⁻⁶ cm/s'),
  ('Cc1ncsc1-c1ccc(CNC(=O)[C@@H]2C[C@@H](O)CN2C(=O)[C@@H](NC(=O)CCOCCOCCNC(=O)Cc2ccccc2)C(C)(C)C)cc1 [Compound 16]', '3.3 ×10⁻⁶ cm/s'),
  ('Cc1ncsc1-c1ccc(CNC(=O)[C@@H]2C[C@@H](O)CN2C(=O)[C@@H](NC(=O)CCCCCNC(=O)CC(c2ccccc2)c2ccccc2)C(C)(C)C)cc1 [Compound 6]', '18.5 ×10⁻⁶ cm/s');

* * *

Test: Log D(dec/w) shake flask partition coefficient
Assay type: physicochemical
Conditions: 1,9-decadiene/PBS; 1,9-decadiene and PBS pH 7.4 shake flask partition coefficient
measurement kind: logD hydrocarbon water

INSERT INTO measurements (compound, measurement_kind, readout_value) VALUES
  ('Cc1ncsc1-c1ccc(CNC(=O)[C@@H]2C[C@@H](O)CN2C(=O)[C@@H](NC(=O)CCOCCOCCOCCNC(=O)Cc2ccccc2)C(C)(C)C)cc1 [Compound 17]', 'logD hydrocarbon water', -1.9),
  ('Cc1ncsc1-c1ccc(CNC(=O)[C@@H]2C[C@@H](O)CN2C(=O)[C@@H](NC(=O)CCCCCOC(=O)C2CCCCC2)C(C)(C)C)cc1 [Compound 11]', 'logD hydrocarbon water', 1.1),
  ('COCC(=O)NCCCCCC(=O)N[C@H](C(=O)N1C[C@H](O)C[C@H]1C(=O)NCc1ccc(-c2scnc2C)cc1)C(C)(C)C [Compound 1]', 'logD hydrocarbon water', -2.2),
  ('Cc1ncsc1-c1ccc(CNC(=O)[C@@H]2C[C@@H](O)CN2C(=O)[C@@H](NC(=O)CCCCCOC(=O)CC(c2ccccc2)c2ccccc2)C(C)(C)C)cc1 [Compound 13]', 'logD hydrocarbon water', 1.9),
  ('CCCC(=O)OCCCCCC(=O)N[C@H](C(=O)N1C[C@H](O)C[C@H]1C(=O)NCc1ccc(-c2scnc2C)cc1)C(C)(C)C [Compound 9]', 'logD hydrocarbon water', -0.5),
  ('Cc1ncsc1-c1ccc(CNC(=O)[C@@H]2C[C@@H](O)CN2C(=O)[C@@H](NC(=O)CCCCCNC(=O)CC(c2ccccc2)c2ccccc2)C(C)(C)C)cc1 [Compound 6]', 'logD hydrocarbon water', -0.3),
  ('Cc1ncsc1-c1ccc(CNC(=O)[C@@H]2C[C@@H](O)CN2C(=O)[C@@H](NC(=O)CCCCCOC(=O)CC23CC4CC(CC(C4)C2)C3)C(C)(C)C)cc1 [Compound 12]', 'logD hydrocarbon water', 2.4),
  ('Cc1ncsc1-c1ccc(CNC(=O)[C@@H]2C[C@@H](O)CN2C(=O)[C@@H](NC(=O)CCCCCNC(=O)C2CCCCC2)C(C)(C)C)cc1 [Compound 4]', 'logD hydrocarbon water', -1.4),
  ('COCC(=O)OCCCCCC(=O)N[C@H](C(=O)N1C[C@H](O)C[C@H]1C(=O)NCc1ccc(-c2scnc2C)cc1)C(C)(C)C [Compound 8]', 'logD hydrocarbon water', -1.7);

* * *

Settings: human
Plasma stability for assorted compounds
measurement kind: Plasma stability (%)

INSERT INTO measurements (smiles_text, readout_value) VALUES
  ('CCCCOc1ccc(-c2ccc(C(=O)OCCCCCC(=O)N[C@H](C(=O)N3C[C@H](O)C[C@H]3C(=O)NCc3ccc(-c4scnc4C)cc3)C(C)(C)C)cc2)cc1', 119),
  ('Cc1ncsc1-c1ccc(CNC(=O)[C@@H]2C[C@@H](O)CN2C(=O)[C@@H](NC(=O)CCCCCNC(=O)CC23CC4CC(CC(C4)C2)C3)C(C)(C)C)cc1', 74),
  ('COCC(=O)NCCCCCC(=O)N[C@H](C(=O)N1C[C@H](O)C[C@H]1C(=O)NCc1ccc(-c2scnc2C)cc1)C(C)(C)C', 126),
  ('Cc1ncsc1-c1ccc(CNC(=O)[C@@H]2C[C@@H](O)CN2C(=O)[C@@H](NC(=O)CCOCCNC(=O)Cc2ccccc2)C(C)(C)C)cc1', 103),
  ('Cc1ncsc1-c1ccc(CNC(=O)[C@@H]2C[C@@H](O)CN2C(=O)[C@@H](NC(=O)CCCCCOC(=O)CC(c2ccccc2)c2ccccc2)C(C)(C)C)cc1', 58),
  ('Cc1ncsc1-c1ccc(CNC(=O)[C@@H]2C[C@@H](O)CN2C(=O)[C@@H](NC(=O)CCCCCNC(=O)Cc2ccccc2)C(C)(C)C)cc1', 130),
  ('Cc1ncsc1-c1ccc(CNC(=O)[C@@H]2C[C@@H](O)CN2C(=O)[C@@H](NC(=O)CCOCCOCCOCCNC(=O)Cc2ccccc2)C(C)(C)C)cc1', 133),
  ('CCCCOc1ccc(-c2ccc(C(=O)NCCCCCC(=O)N[C@H](C(=O)N3C[C@H](O)C[C@H]3C(=O)NCc3ccc(-c4scnc4C)cc3)C(C)(C)C)cc2)cc1', 83),
  ('Cc1ncsc1-c1ccc(CNC(=O)[C@@H]2C[C@@H](O)CN2C(=O)[C@@H](NC(=O)CCOCCOCCNC(=O)Cc2ccccc2)C(C)(C)C)cc1', 151),
  ('Cc1ncsc1-c1ccc(CNC(=O)[C@@H]2C[C@@H](O)CN2C(=O)[C@@H](NC(=O)CCCCCNC(=O)C2CCCCC2)C(C)(C)C)cc1', 168),
  ('CCCC(=O)NCCCCCC(=O)N[C@H](C(=O)N1C[C@H](O)C[C@H]1C(=O)NCc1ccc(-c2scnc2C)cc1)C(C)(C)C', 83),
  ('COCC(=O)OCCCCCC(=O)N[C@H](C(=O)N1C[C@H](O)C[C@H]1C(=O)NCc1ccc(-c2scnc2C)cc1)C(C)(C)C', 1);
